tested_system: rBCATc (Rattus norvegicus, UniProt P54690)
Construct: The supernatant was dialyzed with at least three changes of dialysis buffer; from tissue; host or cells: rat brain (high-speed supernatant of homogenate, dialyzed)
Sequence (P54690 1-411): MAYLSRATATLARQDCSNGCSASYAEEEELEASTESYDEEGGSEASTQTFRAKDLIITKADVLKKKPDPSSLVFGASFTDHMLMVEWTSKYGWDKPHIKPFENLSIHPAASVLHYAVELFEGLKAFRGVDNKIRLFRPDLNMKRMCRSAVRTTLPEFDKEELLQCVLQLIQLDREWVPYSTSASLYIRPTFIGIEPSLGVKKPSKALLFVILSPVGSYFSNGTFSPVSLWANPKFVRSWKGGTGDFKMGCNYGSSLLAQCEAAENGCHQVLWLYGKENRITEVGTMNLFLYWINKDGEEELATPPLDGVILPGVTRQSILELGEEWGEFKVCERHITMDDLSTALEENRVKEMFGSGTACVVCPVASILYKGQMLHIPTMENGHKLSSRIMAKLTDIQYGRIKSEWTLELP
experimental_protocol: Assay of BCAT ([14C] L-leucine transamination, rat brain supernatant enzyme)
Type: biochemical
condition_info: 25 µM [14C] L-leucine, 10 mM 2-oxoglutarate, pH 8.3, 10 min, 22 °C; read-out: rBCATc IC50
Where a name gives a salt, the structure may show the parent alone.
// boundary case: IC50 equal to 1 mM maps to false; strictly smaller maps to true

Please review the entries below; each comes with its answer.
Prompt line: Regarding CN(C)CC1(CC(=O)O)CCCCC1 [Example 51, hydrochloride salt] , kindly confirm whether its IC50 is beneath 1 mM.
Response line: false

Prompt line: Regarding CC(C)CNC[C@@]1(CC(=O)O)C[C@H](C)C[C@H](C)C1 [Example 17, hydrochloride salt] , kindly confirm whether its IC50 is beneath 1 mM.
Response line: false

Prompt line: Regarding CCC(C)CNCC1(CC(=O)O)CCCCC1 (stereo not drawn) [Example 26, hydrochloride salt] , kindly confirm whether its IC50 is beneath 1 mM.
Response line: false

Prompt line: Regarding CC(C)NC[C@@]1(CC(=O)O)C[C@H](C)C[C@H](C)C1 [Example 21, hydrochloride salt] , kindly confirm whether its IC50 is beneath 1 mM.
Response line: true

Prompt line: Regarding C[C@@H]1C[C@H](C)C[C@](CNCc2ccccc2)(CC(=O)O)C1 [Example 11, hydrochloride salt] , kindly confirm whether its IC50 is beneath 1 mM.
Response line: false

Prompt line: Regarding O=C(O)CC1(CNCCCC(F)(F)F)CCCCC1 [Example 27, hydrochloride salt] , kindly confirm whether its IC50 is beneath 1 mM.
Response line: false

New cases:
Prompt line: Regarding NCC1(CC(=O)O)CCCCC1 [Example 22, 1-Aminomethyl-1-cyclohexane-acetic acid] , kindly confirm whether its IC50 is beneath 1 mM.
Response line: true

Prompt line: Regarding C[C@@H]1CCC[C@](CN)(CC(=O)O)C1 [Example 1, hydrochloride] , kindly confirm whether its IC50 is beneath 1 mM.
Response line: true

Prompt line: Regarding CNCC1(CC(=O)O)CCCCC1 [Example 54, hydrochloride salt] , kindly confirm whether its IC50 is beneath 1 mM.
Response line: true

Prompt line: Regarding O=C(O)CC1(CO)CCCCC1 [Example 25] , kindly confirm whether its IC50 is beneath 1 mM.
Response line: true

Prompt line: Regarding CCCCNC[C@@]1(CC(=O)O)C[C@H](C)C[C@H](C)C1 [Example 13, hydrochloride salt] , kindly confirm whether its IC50 is beneath 1 mM.
Response line: false

Prompt line: Regarding O=C(O)CC1(CNCc2ccccc2)CCCCC1 [Example 35, hydrochloride salt] , kindly confirm whether its IC50 is beneath 1 mM.
Response line: false

Prompt line: Regarding O=C(O)CC1(CNCC2CCCC2)CCCCC1 [Example 37] , kindly confirm whether its IC50 is beneath 1 mM.
Response line: false

Prompt line: Regarding C[C@@H]1C[C@H](C)C[C@](CN)(CC(=O)O)C1 [Example 8, hydrochloride] , kindly confirm whether its IC50 is beneath 1 mM.
Response line: true

Prompt line: Regarding O=C(O)CC1(CNC2CCCCC2)CCCCC1 [Example 34, hydrochloride salt] , kindly confirm whether its IC50 is beneath 1 mM.
Response line: false

Measured values drawn from patent EP1157000B1 for this set.
